Data credit: ChEMBL document CHEMBL5537172

# target.under.test: Protein kinase C eta type (Homo sapiens)
# Sequence (P24723 whole entry): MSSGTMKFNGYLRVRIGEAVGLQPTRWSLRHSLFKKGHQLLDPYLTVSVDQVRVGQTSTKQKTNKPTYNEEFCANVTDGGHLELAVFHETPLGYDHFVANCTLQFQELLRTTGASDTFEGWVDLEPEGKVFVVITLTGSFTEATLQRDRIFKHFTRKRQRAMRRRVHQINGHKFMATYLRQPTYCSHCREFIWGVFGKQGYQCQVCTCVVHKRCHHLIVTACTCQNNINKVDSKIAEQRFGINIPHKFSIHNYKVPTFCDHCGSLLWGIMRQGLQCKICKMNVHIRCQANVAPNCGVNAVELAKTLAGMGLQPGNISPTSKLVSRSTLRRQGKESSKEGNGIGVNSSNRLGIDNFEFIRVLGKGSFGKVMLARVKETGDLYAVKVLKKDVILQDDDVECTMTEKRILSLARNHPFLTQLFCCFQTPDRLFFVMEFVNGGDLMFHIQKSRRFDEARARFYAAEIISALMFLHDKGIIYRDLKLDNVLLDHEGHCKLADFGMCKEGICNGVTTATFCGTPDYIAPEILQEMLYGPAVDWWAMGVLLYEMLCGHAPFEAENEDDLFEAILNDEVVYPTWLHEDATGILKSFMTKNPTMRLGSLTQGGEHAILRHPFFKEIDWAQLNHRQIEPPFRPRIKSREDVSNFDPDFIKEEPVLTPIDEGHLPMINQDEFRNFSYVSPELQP
# assay.notes: Inhibition of PKCeta (unknown origin)
property.name: IC50 (nM)
One number for each entry, in nM.

> print(dat)
                                   molecule  property.name  unit  endpoint.value
1  CN1CCN(c2nc(C3=C(c4c[nH]c5ccccc45)C(=O)NC3=O)c3ccccc3n2)CC1 [SOTRASTAURIN]           IC50    nM             5.9

Let us move to another entry and its IC50.
Recorded IC50 of CC1(N)CCN(c2cccnc2NC(=O)c2nc(-c3ncccc3C(F)(F)F)cnc2N)CC1 [DAROVASERTIB] , please.
13.3

----------
# assay.notes: Oral bioavailability in mouse at 10 mg/kg measured upto 24 hrs by LC-MS/MS analysis
# Type: ADME, organism-based
# details: in vivo
property.name: bioavailability (%)
Answers are plain numbers, in %.

Recorded bioavailability of CC1(N)CCN(c2cccnc2NC(=O)c2nc(-c3ncccc3C(F)(F)F)cnc2N)CC1 , please.
17

----------
# assay.notes: Clearance in dog at 0.3 mg/kg, iv measured upto 24 hrs by LC-MS/MS analysis
# Format: ADME, organism-based, Canis lupus familiaris
# details: in vivo
property.name: clearance (mL/min/kg)
Answers are plain numbers, in mL/min/kg.

Recorded clearance of CC1(N)CCN(c2cccnc2NC(=O)c2nc(-c3ncccc3C(F)(F)F)cnc2N)CC1 , please.
5

----------
# assay.notes: AUCinfinity in mouse at 10 mg/kg, po measured upto 24 hrs by LC-MS/MS analysis
# Type: ADME, organism-based
# details: in vivo
property.name: AUC(0-inf) (µM·h)
One number for each entry, in µM·h.

Recorded AUC(0-inf) of CC1(N)CCN(c2cccnc2NC(=O)c2nc(-c3ncccc3C(F)(F)F)cnc2N)CC1 [DAROVASERTIB] , please.
2.17

----------
# assay.notes: Cmax in mouse at 10 mg/kg, po measured upto 24 hrs by LC-MS/MS analysis
# Assay type: ADME, organism-based
# details: in vivo
property.name: Cmax (nM)
One number for each entry, in nM.

Recorded Cmax of CC1(N)CCN(c2cccnc2NC(=O)c2nc(-c3ncccc3C(F)(F)F)cnc2N)CC1 , please.
667

----------
# assay.notes: Half life in mouse at 1 mg/kg, iv measured upto 24 hrs by LC-MS/MS analysis
# Assay type: ADME, organism-based
# details: in vivo
property.name: half-life
Don't forget the unit after the value.

Recorded half-life of CC1(N)CCN(c2cccnc2NC(=O)c2nc(-c3ncccc3C(F)(F)F)cnc2N)CC1 [DAROVASERTIB] , please.
1.1 h

----------
# target.under.test: Protein kinase C beta type (Homo sapiens)
# Sequence (P05771 whole entry): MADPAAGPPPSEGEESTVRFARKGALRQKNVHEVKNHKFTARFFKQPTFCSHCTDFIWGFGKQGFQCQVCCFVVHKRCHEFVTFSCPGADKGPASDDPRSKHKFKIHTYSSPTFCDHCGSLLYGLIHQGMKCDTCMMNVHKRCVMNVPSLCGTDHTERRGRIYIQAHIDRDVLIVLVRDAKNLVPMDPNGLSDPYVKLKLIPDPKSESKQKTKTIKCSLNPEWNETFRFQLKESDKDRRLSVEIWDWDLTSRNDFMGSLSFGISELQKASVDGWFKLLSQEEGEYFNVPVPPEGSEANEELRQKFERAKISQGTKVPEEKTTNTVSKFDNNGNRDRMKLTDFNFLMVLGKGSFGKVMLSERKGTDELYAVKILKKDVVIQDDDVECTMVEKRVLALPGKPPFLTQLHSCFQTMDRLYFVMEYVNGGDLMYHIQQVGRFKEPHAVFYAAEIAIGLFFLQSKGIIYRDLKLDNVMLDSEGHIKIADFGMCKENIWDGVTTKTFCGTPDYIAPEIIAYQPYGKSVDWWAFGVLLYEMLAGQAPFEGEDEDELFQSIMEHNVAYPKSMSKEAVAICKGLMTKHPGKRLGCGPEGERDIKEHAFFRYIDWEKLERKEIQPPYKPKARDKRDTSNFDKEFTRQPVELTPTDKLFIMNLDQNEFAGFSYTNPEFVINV
# assay.notes: Inhibition of PKCbeta1 (unknown origin)
property.name: pIC50
Numbers only, as −log10 of the molar value.

Recorded pIC50 of CC1(N)CCN(c2cccnc2NC(=O)c2nc(-c3ncccc3C(F)(F)F)cnc2N)CC1 , please.
7.18

----------
# assay.notes: Volume of distribution at steady state in dog at 0.3 mg/kg, iv measured upto 24 hrs by LC-MS/MS analysis
# Type: ADME, organism-based, Canis lupus familiaris
# details: in vivo, read-out: Vdss
property.name: Vd (L/kg)
Numbers only, in L/kg.

Recorded Vd of CC1(N)CCN(c2cccnc2NC(=O)c2nc(-c3ncccc3C(F)(F)F)cnc2N)CC1 , please.
1.4
